Molecular target: T1, Cyno ASGR-1 (cynomolgus monkey, UniProt P07306 1-291 (human entry))
T1 construct: Expressed on HEK 293 cells or as membrane prep on beads; cDNA from XP_005582755; also called cynomologus monkey ASGR-1
T1 chain: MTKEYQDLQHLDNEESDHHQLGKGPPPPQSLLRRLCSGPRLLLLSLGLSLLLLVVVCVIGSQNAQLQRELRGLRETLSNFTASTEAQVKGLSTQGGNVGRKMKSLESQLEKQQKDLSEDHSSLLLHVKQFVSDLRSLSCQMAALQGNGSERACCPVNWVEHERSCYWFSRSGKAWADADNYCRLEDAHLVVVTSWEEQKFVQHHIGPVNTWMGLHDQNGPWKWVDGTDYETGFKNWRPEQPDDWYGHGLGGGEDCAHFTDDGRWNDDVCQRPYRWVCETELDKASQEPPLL
Experiment: FACS on transfected HEK 293 cells or membrane preps on beads; Y = signal at least 2x irrelevant IgG
endpointLabel: binding result

4A2 (antibody, V domains shown, Tested as hybridoma supernatant at normalized concentration) VH: QVQLVQSGTEVKKPGASVKVSCKASGYTFTNYDINWVRQATGQGLEWMGWMHPNSGNTGYAQKFQGRVTLTRNTSISTAYMELSSLRSEDTAVYYCASSSGWYYFDYWGQGTLVTVSS VL: DIVMTQSPDSLAVSLGERATINCKSSQSILHSSNNNNYLAWFQQKPGQPPKLLLYWASTRESGVPDRFSGSGSGTDFTLTISSLQPEDVAVYYCQQYYNTPVTFGPGTKVGIK; binds
202A3 (antibody, V domains shown, Tested as hybridoma supernatant at normalized concentration) VH: QVQLEQSGAEVKKPGASVKVSCKASGYTFTSYDINWVRQATGQGLEWLGWMNPKRGNTGYAQKFQGRVTMTRNTSISTAHMELSSLRSEDTAVYYCARGRYSREDYYYYYDMDVWGQGTTVTVSS VL: DIQMSQSPSSLSASVGDRVTITCRASQGIRNDLGWYQQKPGKAPKRLICAASRLQSGVPSRFSGSGSGTEFTLTISSLQPEDFAIYYCLQHHDYPFTFGPGTKVDIK; binds
176H4 (antibody, V domains shown, Tested as hybridoma supernatant at normalized concentration) VH: QVQLVESGGGVVQPGRSLRLSCAASGFTFSSYGMHWVRQAPGKGLEWVAIIWYDGSYKYYADSVKGRFTISRDNSKNTLYLQMSSLRAEDTAVYYCARDAHDFWSGYFAYWGQGALVTVSS VL: DIVMTQTPLSLSVTPGQPASISCKSSQSLLHGDGKTYLYWYLQKPGQPPQLLIYEVSNRFSGVPDRFSGSGSGTDFTLKISRVEAEDVGIYYCMQSIQIPWTFGQGTRVEIK; binds

From: patent US20190248902A1
